Values from ChEMBL document CHEMBL1145338

assay.details: Volume of distribution in Sprague-Dawley rat at 1 mg/kg, iv
Type: ADME, organism-based
Parameters: dose 1 mg/kg, route intravenous
experimental.setup: in vivo, read-out: Vss
measured.attribute: Vd (L/kg)
The reply should contain only the number, in L/kg.

Task: Find the measured Vd of COc1ccc(N(C(=O)Oc2c(C)cccc2C)c2ccnc(Nc3cc(OC)c(OCCCN4CCN(C)CC4)c(OC)c3)n2)c(OC)c1 and report it.
Result: 11.3

---

measurement.target: Mitogen-activated protein kinase 14 (Homo sapiens)
Sequence (Q16539 whole entry): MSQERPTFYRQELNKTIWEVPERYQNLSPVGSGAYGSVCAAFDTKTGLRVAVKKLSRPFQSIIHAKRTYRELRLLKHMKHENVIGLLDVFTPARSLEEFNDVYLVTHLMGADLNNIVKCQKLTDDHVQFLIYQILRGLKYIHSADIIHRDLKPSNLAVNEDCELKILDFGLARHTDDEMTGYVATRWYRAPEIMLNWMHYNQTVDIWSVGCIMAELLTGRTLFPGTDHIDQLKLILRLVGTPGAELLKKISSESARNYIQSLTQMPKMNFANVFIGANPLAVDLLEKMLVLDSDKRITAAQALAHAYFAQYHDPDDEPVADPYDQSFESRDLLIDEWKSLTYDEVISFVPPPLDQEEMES
assay.details: Inhibition of p38alpha
For each entry below, report its pIC50 value.
pIC50 here is simply -log10 of the concentration when that concentration is written in mol/L.

Task: Kindly indicate its recorded pIC50. Item: COc1ccc(N(C(=O)Oc2c(C)cccc2C)c2ccnc(Nc3ccc(N4CCN(C)CC4)c(F)c3)n2)c(OC)c1
Result: 6.00

Task: Find the measured pIC50 of COc1ccc(N(C(=O)Oc2c(C)cccc2C)c2ccnc(Nc3ccc(OCCCN4CCCCC4)c(F)c3)n2)c(OC)c1 and report it.
Result: 5.17

Task: State its pIC50: COc1ccc(N(C(=O)Oc2c(C)cccc2C)c2ccnc(Nc3ccc(OCCCN(C)C)cc3)n2)c(OC)c1
Result: 5.68

Task: Please supply the value of reported pIC50 for the item Cc1cccc(C)c1OC(=O)N(c1ccc(-c2ccccc2)cc1)c1ccnc(Nc2ccc(N3CCN(C)CC3)cc2)n1
Result: 5.74

Task: Given the compound Cc1cccc(C)c1OC(=O)N(c1ccccc1)c1ccnc(Nc2ccc(N3CCN(C)CC3)cc2)n1 , write its reported pIC50.
Result: 6.80

Task: Read the entry COc1ccc(N(C(=O)Oc2c(C)cccc2C)c2ccnc(Nc3cc(OC)c(OCCN4CCN(C)CC4)c(OC)c3)n2)c(OC)c1 and write its reported pIC50.
Result: 6.74

Task: Read the entry COc1ccc(N(C(=O)Oc2c(C)cccc2C)c2ccnc(Nc3cc(OC)c(N4CCN(C)CC4)c(OC)c3)n2)c(OC)c1 and write its reported pIC50.
Result: 6.37

Task: Please report the measured pIC50 for COc1ccc(N(C(=O)Oc2c(C)cccc2C)c2ccnc(Nc3ccc(OCCCN4CCN(C)CC4)c(OC)c3)n2)c(OC)c1
Result: 5.64
